meta.source: ChEMBL document CHEMBL1154065

Exercise: state measured Ki for each of the compounds provided.
test: Inhibition of HCV NS3 protease by continuous spectrophotometric assay; set-up: species or system Hepacivirus hominis
Numbers only here, please. The scale is nM.

# Ki (compound: C=CCNC(=O)C(=O)C(CCC)NC(=O)[C@@H]1[C@@H]2[C@H](CN1C(=O)[C@@H](NC(=O)N[C@H](CN(C)S(=O)(=O)CC)C(C)(C)C)C1Cc3ccccc3C1)C2(C)C (stereo partly specified) ) is 6

Form field Ki, entry CN(C[C@@H](NC(=O)N[C@H](C(=O)N1C[C@H]2[C@@H]([C@H]1C(=O)NC(CC1CCC1)C(=O)C(N)=O)C2(C)C)C(C)(C)C)C(C)(C)C)S(=O)(=O)c1ccccc1 (stereo partly specified) : 5

Query CC(C)(C)NC(=O)N[C@H](C(=O)N1C[C@H]2[C@@H]([C@H]1C(=O)NC(CC1CCC1)C(=O)C(N)=O)C2(C)C)C(C)(C)C (stereo partly specified) yields Ki of 14

The recorded Ki for CC(C)[C@@H](CN(C)S(C)(=O)=O)NC(=O)N[C@H](C(=O)N1C[C@H]2[C@@H]([C@H]1C(=O)NC(CC1CCC1)C(=O)C(N)=O)C2(C)C)C(C)(C)C (stereo partly specified) is 4

response.value for CC(C)[C@@H](CNS(=O)(=O)c1ccccc1)NC(=O)N[C@H](C(=O)N1C[C@H]2[C@@H]([C@H]1C(=O)NC(CC1CC1)C(=O)C(N)=O)C2(C)C)C(C)(C)C (stereo partly specified) (field: Ki) = 10

# Ki (compound: CC(C)[C@@H](CNS(=O)(=O)c1cccs1)NC(=O)N[C@H](C(=O)N1C[C@H]2[C@@H]([C@H]1C(=O)NC(CC1CCC1)C(=O)C(N)=O)C2(C)C)C(C)(C)C (stereo partly specified) ) is 23

For CN(CC1(NC(=O)N[C@H](C(=O)N2C[C@H]3[C@@H]([C@H]2C(=O)NC(CC2CCC2)C(=O)C(N)=O)C3(C)C)C(C)(C)C)CCCCC1)S(=O)(=O)c1ccccc1 (stereo partly specified) the compound record lists Ki as 12

Sure, the documented Ki for CC(C)[C@@H](CN(C)S(=O)(=O)c1cccs1)NC(=O)N[C@H](C(=O)N1C[C@H]2[C@@H]([C@H]1C(=O)NC(CC1CCC1)C(=O)C(N)=O)C2(C)C)C(C)(C)C (stereo partly specified) is 12

According to the records, this compound C=CCNC(=O)C(=O)C(CCCC)NC(=O)[C@@H]1[C@@H]2[C@H](CN1C(=O)[C@@H](NC(=O)N[C@H](CN(C)S(=O)(=O)CC)C(C)(C)C)C1Cc3ccccc3C1)C2(C)C (stereo partly specified) displays Ki of 6

Looking up CC(C)C(CN(C)S(=O)(=O)c1ccccc1)NC(=O)N[C@H](C(=O)N1C[C@H]2[C@@H]([C@H]1C(=O)NC(CC1CCC1)C(=O)C(N)=O)C2(C)C)C(C)(C)C (single isomer, unassigned) , I found its Ki recorded as 8

Reported Ki of CC(C)[C@H](NC(=O)N[C@H](C(=O)N1C[C@H]2[C@@H]([C@H]1C(=O)NC(CC1CC1)C(=O)C(N)=O)C2(C)C)C(C)(C)C)C(=O)OC(C)(C)C (stereo partly specified) : 6

Recorded Ki (compound CC(C)(C)[C@H](NC(=O)N[C@H](CNS(=O)(=O)c1ccccc1)C(C)(C)C)C(=O)N1C[C@H]2[C@@H]([C@H]1C(=O)NC(CC1CCC1)C(=O)C(N)=O)C2(C)C (stereo partly specified) ): 13

Please fill in: Ki reported for CCS(=O)(=O)N(C)C[C@@H](NC(=O)N[C@H](C(=O)N1C[C@H]2[C@@H]([C@H]1C(=O)NC(CC1CCC1)C(=O)C(N)=O)C2(C)C)C(C)(C)C)C(C)(C)C (stereo partly specified) = 4

Ki for CC(C)[C@@H](CNS(C)(=O)=O)NC(=O)N[C@H](C(=O)N1C[C@H]2[C@@H]([C@H]1C(=O)NC(CC1CCC1)C(=O)C(N)=O)C2(C)C)C(C)(C)C (stereo partly specified) is 31

The value of Ki measured for the compound CC(C)C[C@@](C)(CN(C)S(=O)(=O)c1ccccc1)NC(=O)N[C@H](C(=O)N1C[C@H]2[C@@H]([C@H]1C(=O)NC(CC1CCC1)C(=O)C(N)=O)C2(C)C)C(C)(C)C (stereo partly specified) turned out to be 80

get_value(item= CC[C@H](C)[C@@H](CN(C)S(=O)(=O)c1ccccc1)NC(=O)N[C@H](C(=O)N1C[C@H]2[C@@H]([C@H]1C(=O)NC(CC1CCC1)C(=O)C(N)=O)C2(C)C)C(C)(C)C (stereo partly specified) , readout=Ki) returns 13

Ki in this record for C=CCNC(=O)C(=O)C(CCC)NC(=O)[C@@H]1[C@@H]2[C@H](CN1C(=O)[C@@H](NC(=O)N[C@H](CN(C)S(=O)(=O)CC)C(C)(C)C)C(C)(C)C)C2(C)C (stereo partly specified) : 10

What the record says about CC(C)[C@H](CN(C)S(=O)(=O)c1ccccc1)NC(=O)N[C@H](C(=O)N1C[C@H]2[C@@H]([C@H]1C(=O)NC(CC1CC1)C(=O)C(N)=O)C2(C)C)C(C)(C)C (stereo partly specified) : Ki is 6

response.value for CN(C[C@@H](NC(=O)N[C@H](C(=O)N1C[C@H]2[C@@H]([C@H]1C(=O)NC(CC1CCC1)C(=O)C(N)=O)C2(C)C)C(C)(C)C)C(C)(C)C)S(=O)(=O)c1cccs1 (stereo partly specified) (field: Ki) = 4

Ki in this record for C=CCNC(=O)C(=O)C(CCC)NC(=O)[C@@H]1[C@@H]2[C@H](CN1C(=O)[C@@H](NC(=O)N[C@H](CN(C)S(=O)(=O)c1cccs1)C(C)(C)C)C(C)(C)C)C2(C)C (stereo partly specified) : 10

Ki in this record for C=CCNC(=O)C(=O)C(CCC)NC(=O)[C@@H]1[C@@H]2[C@H](CN1C(=O)[C@@H](NC(=O)N[C@H](CN(C)S(=O)(=O)c1ccccn1)C(C)(C)C)C(C)(C)C)C2(C)C (stereo partly specified) : 14
